B1: FEM1A (parent)
chain: PCCSSSPEEPLNGESYESCCPTSR

- Variants of: B1
- procedure_summary: protein stability index of a GFP-peptide fusion (GPS, HEK-293T) (PSI 1-6); higher = more stable;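 also: lentivirally expressed fusions sorted by FACS into six bins by GFP to DsRed ratio, PSI derived from sequencing read proportions per bin multiplied by bin number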
- recorded_conditions: c terminus: a fixed tail appended
attribute_measured: protein stability index
Just the number.

QUERY: So what does the record say about protein stability index for `Y16F` ?
RESULT: 3.97

QUERY: So what does the record say about protein stability index for `C19A` ?
RESULT: 3.94

QUERY: So what does the record say about protein stability index for `G13P` ?
RESULT: 4.01

QUERY: So what does the record say about protein stability index for `S15H` ?
RESULT: 3.92

QUERY: So what does the record say about protein stability index for `P7E` ?
RESULT: 3.93

QUERY: So what does the record say about protein stability index for `C19S` ?
RESULT: 4.11

QUERY: So what does the record say about protein stability index for `N12T` ?
RESULT: 3.89

QUERY: So what does the record say about protein stability index for `P10S` ?
RESULT: 3.91

QUERY: So what does the record say about protein stability index for `S6E` ?
RESULT: 4.01

QUERY: So what does the record say about protein stability index for `Y16N` ?
RESULT: 3.97

QUERY: So what does the record say about protein stability index for `N12Y` ?
RESULT: 3.96

QUERY: So what does the record say about protein stability index for `S23N` ?
RESULT: 4.1
